- Test system: SRS-A release from lung fragments
- measurement_protocol: Inhibition of SRS-A release from sensitized guinea pig lung fragments
- Assay type: cell-based, guinea pig (Hartley strain)
- condition_details: Cavia porcellus, Table 2, dose 30 μM; read-out: Inhibition ratio (%) SRS-A
value_kind: inhibition at 30 µM (%)
Write it as a number; the unit % goes unstated.

Observe how each entry below is paired with its result.
molecule_smiles=COC1=CC(=O)C(OC)=C(CCCCCCCCCC#CCCCCCCCCCC2=C(OC)C(=O)C=C(OC)C2=O)C1=O unit_spec=% quantitative_result=16.6
molecule_smiles=COC1=CC(=O)C(OC)=C(CCCCCC#CCCCCCC2=C(OC)C(=O)C=C(OC)C2=O)C1=O unit_spec=% quantitative_result=43.9
molecule_smiles=COC1=CC(=O)C(OC)=C(CCCCCCCCC2=C(OC)C(=O)C=C(OC)C2=O)C1=O unit_spec=% quantitative_result=71.7
molecule_smiles=COC1=CC(=O)C(OC)=C(CCCCCCCCCCCCC2=C(OC)C(=O)C=C(OC)C2=O)C1=O unit_spec=% quantitative_result=3.8
molecule_smiles=COC1=CC(=O)C(OC)=C(CCCCCCCC2=C(OC)C(=O)C=C(OC)C2=O)C1=O unit_spec=% quantitative_result=85.7

Q: # input compound: `COC1=CC(=O)C(OC)=C(CCCCCC2=C(OC)C(=O)C(C)=C(OC)C2=O)C1=O` ; wanted: its inhibition at 30 µM
Result: 91.9

Q: Follow-up entry: `COC1=CC(=O)C(OC)=C(CCCCCCCC#CCCCCCCCC2=C(OC)C(=O)C=C(OC)C2=O)C1=O`
Result: 24.1

Q: Follow-up entry: `COC1=CC(=O)C(OC)=C(CCCCCCCCCCC2=C(OC)C(=O)C=C(OC)C2=O)C1=O`
Result: 29.2

Origin of measurements: patent US5220042A
